System: Aspergillus fumigatus
assay-overview: Antifungal activity against Aspergillus fumigatus GIMCC 3.19 assessed as inhibition of growth incubated for 24 hrs by two-fold serial dilution method
Format: functional
measure: MIC (µg/mL)
Report only the number, with the unit µg/mL understood.

Illustrative cases are given below, each with its answer.
COc1ccc(NC(=O)/C=C/C(=O)Nc2ccc3c(c2)NC(=O)C2(CCNC2=O)C3)cc1 (racemic) = 64
CCCCNC(=O)/C=C/C(=O)Nc1ccc2c(c1)NC(=O)C1(CCNC1=O)C2 (racemic) = 256
O=C(/C=C/C(=O)Nc1cccc2ccccc12)Nc1ccc2c(c1)NC(=O)C1(CCNC1=O)C2 (racemic) = 8

Lab note: O=C(/C=C/C(=O)Nc1nccs1)Nc1ccc2c(c1)NC(=O)C1(CCNC1=O)C2 (racemic) gave MIC of 32

Per the records, this compound ( Cc1ccc(NC(=O)C2CCN(CC(=O)Nc3ccc4c(c3)NC(=O)C3(CCNC3=O)C4)CC2)cc1C (racemic) ) has MIC equal to 64

Note to self: MIC recorded for CCCCN(CCCC)C(=O)/C=C/C(=O)Nc1ccc2c(c1)NC(=O)C1(CCNC1=O)C2 (racemic) was 256

Lab note: CCCCNC(=O)C1CCN(CC(=O)Nc2ccc3c(c2)NC(=O)C2(CCNC2=O)C3)CC1 (racemic) gave MIC of 256

response.value for O=C(CN1CCC(C(=O)Nc2ccc(Cl)cc2)CC1)Nc1ccc2c(c1)NC(=O)C1(CCNC1=O)C2 (racemic) (field: MIC) = 16

Query O=C(CN1CCC(C(=O)Nc2nc3ccccc3s2)CC1)Nc1ccc2c(c1)NC(=O)C1(CCNC1=O)C2 (racemic) yields MIC of 32

Reported MIC ( `NC(=O)OC[C@H](O)[C@@H](O)[C@H](N)C(=O)N[C@H](C(=O)O)[C@H]1O[C@@H](n2cc(CO)c(=O)[nH]c2=O)[C@H](O)[C@@H]1O` ) = 8

Reported MIC ( Cc1cc([N+](=O)[O-])ccc1NC(=O)C1CCN(CC(=O)Nc2ccc3c(c2)NC(=O)C2(CCNC2=O)C3)CC1 (racemic) ) = 16

Just so you know, measured MIC for COc1ccc(NC(=O)C2CCN(CC(=O)Nc3ccc4c(c3)NC(=O)C3(CCNC3=O)C4)CC2)cc1 (racemic) came out at 64

The compound Cc1ccc(NC(=O)/C=C/C(=O)Nc2ccc3c(c2)NC(=O)C2(CCNC2=O)C3)cc1 (racemic) showed MIC equal to 16

Entry Cc1ccc(NC(=O)C2CCN(CC(=O)Nc3ccc4c(c3)NC(=O)C3(CCNC3=O)C4)CC2)cc1 (racemic) ; MIC = 128

Value of MIC reported for the compound CCCCCNC(=O)/C=C/C(=O)Nc1ccc2c(c1)NC(=O)C1(CCNC1=O)C2 (racemic) is 128

Given item O=C(CN1CCC(C(=O)Nc2ccc(Br)cc2)CC1)Nc1ccc2c(c1)NC(=O)C1(CCNC1=O)C2 (racemic) , the value recorded as its MIC is 16

* * *

Test system: Cryptococcus neoformans
assay-overview: Antifungal activity against Cryptococcus neoformans ATCC 32719 assessed as inhibition of growth incubated for 24 hrs by two-fold serial dilution method
Format: functional
measure: MIC (µg/mL)
Unit µg/mL implied. Number only.

COc1ccccc1NC(=O)C1CCN(CC(=O)Nc2ccc3c(c2)NC(=O)C2(CCNC2=O)C3)CC1 (racemic) = 32
Cc1ccc(NC(=O)C2CCN(CC(=O)Nc3ccc4c(c3)NC(=O)C3(CCNC3=O)C4)CC2)cc1 (racemic) = 32
NC(=O)OC[C@H](O)[C@@H](O)[C@H](N)C(=O)N[C@H](C(=O)O)[C@H]1O[C@@H](n2cc(CO)c(=O)[nH]c2=O)[C@H](O)[C@@H]1O [POLYOXIN B] = 16

Reported MIC for O=C(CN1CCC(C(=O)Nc2ccccc2)CC1)Nc1ccc2c(c1)NC(=O)C1(CCNC1=O)C2 (racemic) was 64

For reference, reported MIC for O=C(/C=C/C(=O)Nc1ccc2c(c1)NC(=O)C1(CCNC1=O)C2)Nc1ccc(Br)cc1 (racemic) stands at 16

Kindly note the recorded MIC for O=C(/C=C/C(=O)Nc1ccc2c(c1)NC(=O)C1(CCNC1=O)C2)Nc1ccc(F)cc1 (racemic) , which is 32

Field MIC (entry O=C(/C=C/C(=O)Nc1ccc2c(c1)NC(=O)C1(CCNC1=O)C2)Nc1ccccc1 (racemic) ) reads 128
